- METHOD: Pharmacokinetic assay in rats, oral
- Format: in vivo
- CONDITION: rat, male SD rats, 5 mg/kg single intragastric administration, plasma

SMILES REPRESENTATION	Tmax
C[C@H]1CNC(=O)c2c(N)nn3ccc(nc23)N2C[C@@H](F)C[C@@H]2c2cc(F)cnc2O1	34.8 min
Nc1nn2ccc3nc2c1C(=O)NCCOc1ncc(F)cc1[C@H]1CCCN31	30 min
Nc1nn2ccc3nc2c1C(=O)NCCOc1ncc(F)cc1[C@H]1C[C@H](F)CN31	60 min

* * *

- METHOD: Pharmacokinetic assay in rats, oral
- Assay type: in vivo
- CONDITION: rat, male SD rats, 5 mg/kg single intragastric administration, plasma
half-life for assorted compounds

COMPOUND	half-life [h]
C[C@H]1CNC(=O)c2c(N)nn3ccc(nc23)N2C[C@@H](F)C[C@@H]2c2cc(F)cnc2O1 [Example 15]	1.53
Nc1nn2ccc3nc2c1C(=O)NCCOc1ncc(F)cc1[C@H]1CCCN31 [Example 33]	4.22
Nc1nn2ccc3nc2c1C(=O)NCCOc1ncc(F)cc1[C@H]1C[C@H](F)CN31 [Example 14]	1.81

* * *

- SUBJECT OF TEST: TrkA^G595R (Kinase domain) kinase (Homo sapiens (Human), UniProt P04629, G595R)
- Sequence (P04629 510-781 G595R): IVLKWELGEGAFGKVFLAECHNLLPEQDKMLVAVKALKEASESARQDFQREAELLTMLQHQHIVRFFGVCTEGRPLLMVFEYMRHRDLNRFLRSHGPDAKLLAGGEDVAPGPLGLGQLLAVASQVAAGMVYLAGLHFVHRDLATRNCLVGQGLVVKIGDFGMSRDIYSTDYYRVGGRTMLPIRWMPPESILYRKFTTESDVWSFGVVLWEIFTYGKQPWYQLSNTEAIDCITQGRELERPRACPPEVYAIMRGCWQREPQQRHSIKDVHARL
- METHOD: Assay for inhibitory activity (IC50) against TrkA^G595R kinase (HTRF)
- CONDITION: kinase 0.2 nM, TK peptide 1 μM, 120 min at 23° C.
pIC50: −log10 of the molar value.
ASSAY READOUT: pIC50

COMPOUND	ENDPOINT RESULT
C[C@@H]1CCc2ncc(F)cc2[C@H]2CCCN2c2ccn3nc(N)c(c3n2)C(=O)N1 [Example 28]	9.00
CC1(C)CNC(=O)c2c(N)nn3ccc(nc23)N2C[C@@H](F)CC2c2cc(F)cnc2OC1 (some centres unmarked) [Example 18]	8.91
Nc1nn2ccc3nc2c1C(=O)NCCCOc1ncc(F)cc1[C@H]1CCCN31 [Example 21]	9.07
Nc1nn2ccc3nc2c1C(=O)NCCCCOc1ncc(F)cc1[C@H]1C[C@H](F)CN31 [Example 16]	9.12
Nc1nn2ccc3nc2c1C(=O)NCCOc1ncc(F)cc1[C@H]1C[C@@H](O)CN31 [Example 9]	9.08
CN1CCCOc2ncc(F)cc2[C@H]2C[C@H](F)CN2c2ccn3nc(N)c(c3n2)C1=O [Example 17]	8.98
Nc1nn2ccc3nc2c1C(=O)NCCCc1ncc(F)cc1[C@H]1C[C@H](F)CN31 [Example 27]	9.17
Nc1nn2ccc3nc2c1C(=O)NCCCCc1ncc(F)cc1[C@H]1C[C@H](F)CN31 [Example 31]	8.84

* * *

- SUBJECT OF TEST: TrkA^G595R (Kinase domain) kinase (Homo sapiens (Human), UniProt P04629, G595R)
- METHOD: Assay for inhibitory activity (IC50) against TrkA^G595R kinase (HTRF)
- CONDITION: kinase 0.2 nM, TK peptide 1 μM, 120 min at 23° C.
pIC50: −log10 of the molar value.
pIC50 for assorted molecules

SMILES REPRESENTATION	pIC50
Nc1nn2ccc3nc2c1C(=O)NCCOc1ncc(F)cc1[C@H]1C[C@H](F)CN31	9.40
C[C@H]1CNC(=O)c2c(N)nn3ccc(nc23)N2CCC[C@@H]2c2cc(F)ccc2O1	8.89
Nc1nn2ccc3nc2c1C(=O)NCCCOc1ccc(F)cc1[C@H]1CCCN31	8.72
C[C@@H]1COc2ncc(F)cc2[C@H]2C[C@H](F)CN2c2ccn3nc(N)c(c3n2)C(=O)N1	9.14
C[C@H]1CNC(=O)c2c(N)nn3ccc(nc23)N2C[C@@H](F)C[C@@H]2c2cc(F)cnc2O1	9.28
Nc1nn2ccc3nc2c1C(=O)NCC(F)(F)COc1ncc(F)cc1[C@H]1C[C@H](F)CN31	8.87
C[C@H]1CCc2ncc(F)cc2[C@H]2C[C@H](F)CN2c2ccn3nc(N)c(c3n2)C(=O)N1	8.97
Nc1nn2ccc3nc2c1C(=O)NCCOc1ccc(F)cc1[C@H]1CCCN31	8.68
